target: Phospho-EGFR (Tyr1068) in A431 cells (Homo sapiens); construct: endogenous in cells; test: HTRF pEGFR/total EGFR assay in A431 cells (EGF stimulated); conditions: compound 2.5 hours then 100 ng/ml EGF 30 mins, ratio pEGFR/total EGFR
Sequence (P00533 25-1210): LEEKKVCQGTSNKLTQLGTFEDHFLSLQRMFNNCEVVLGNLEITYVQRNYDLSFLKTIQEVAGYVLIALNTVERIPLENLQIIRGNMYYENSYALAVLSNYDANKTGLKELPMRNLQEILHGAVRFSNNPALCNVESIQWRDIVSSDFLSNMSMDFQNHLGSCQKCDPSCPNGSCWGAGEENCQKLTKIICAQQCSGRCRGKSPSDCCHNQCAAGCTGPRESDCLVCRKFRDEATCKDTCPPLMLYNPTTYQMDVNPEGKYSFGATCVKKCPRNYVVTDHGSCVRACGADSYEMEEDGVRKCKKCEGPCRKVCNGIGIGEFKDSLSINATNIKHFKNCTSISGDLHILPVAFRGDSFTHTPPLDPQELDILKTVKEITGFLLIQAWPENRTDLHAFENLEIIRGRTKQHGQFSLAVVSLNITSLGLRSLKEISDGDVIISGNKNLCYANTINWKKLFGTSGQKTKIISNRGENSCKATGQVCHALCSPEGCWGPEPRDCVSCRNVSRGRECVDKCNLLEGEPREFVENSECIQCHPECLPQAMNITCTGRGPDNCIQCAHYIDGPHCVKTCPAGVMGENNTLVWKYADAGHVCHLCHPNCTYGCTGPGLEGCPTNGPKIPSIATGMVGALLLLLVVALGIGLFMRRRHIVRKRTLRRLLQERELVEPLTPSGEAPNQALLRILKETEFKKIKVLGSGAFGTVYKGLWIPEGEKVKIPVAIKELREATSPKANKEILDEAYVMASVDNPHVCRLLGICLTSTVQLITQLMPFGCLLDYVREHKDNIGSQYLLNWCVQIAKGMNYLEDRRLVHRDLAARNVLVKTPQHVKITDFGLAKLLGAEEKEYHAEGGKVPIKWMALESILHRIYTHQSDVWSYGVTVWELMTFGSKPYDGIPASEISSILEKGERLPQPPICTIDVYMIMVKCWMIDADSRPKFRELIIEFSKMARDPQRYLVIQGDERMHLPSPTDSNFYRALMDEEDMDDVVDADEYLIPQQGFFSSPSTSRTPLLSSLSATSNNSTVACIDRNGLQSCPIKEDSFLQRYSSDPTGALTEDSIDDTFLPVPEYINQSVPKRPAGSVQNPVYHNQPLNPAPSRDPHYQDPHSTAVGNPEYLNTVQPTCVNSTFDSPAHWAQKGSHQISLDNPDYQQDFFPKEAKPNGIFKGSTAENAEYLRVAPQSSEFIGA
readout_kind: IC50

Example cases with answers are listed next.
{"columns": ["molecule", "IC50"],
 "data": [
  ["C#Cc1cc(OC)nc2nc(Nc3ccc(N4CCN(C)CC4)c(Nc4ccccc4)c3)ncc12 [Example 6]", "> 3 µM"],
  ["C#Cc1cc(N2C(=O)OCC2C(C)C)nc2nc(Nc3ccc(N4CCN(C)CC4)cc3)ncc12 (centres unmarked) [Example 68]", "> 3 µM"],
  ["C#Cc1cc(OC)nc2nc(Nc3ccc(N(C)CCN(C)C)cc3)ncc12 [Example 2]", "> 3 µM"],
  ["C#Cc1cc(N2C(=O)N(C)CC23CCCC3)nc2nc(Nc3ccc(N4CCN(C5COC5)CC4)cc3)ncc12 [Example 104]", "> 3 µM"]
]}

Query molecule follows.
Q) What value of IC50 has been recorded for this entry: C#Cc1cc(NC(=O)NC2CCCC2)nc2nc(Nc3cccc(CN4CCC(CS(C)(=O)=O)C4)c3)ncc12 (centres unmarked) [Example 86]
A) 1 to 3 µM
